Values compiled from ChEMBL document CHEMBL1153003.

System: Calf thymus DNA
assay.summary: Displacement of ethidium bromide from calf thymus DNA
Format: nucleic-acid assay
assay.setup: Bos taurus
The label depends only on logKA: Condition met if it is at least 5, Condition not met if it is smaller.

Please review the following examples before continuing.
O=C(CN1CCCCC1)Nc1ccccc1-c1nc2ccccc2[nH]1 = Condition not met
CC1CCCCN1CCC(=O)Nc1ccccc1-c1nc2ccccc2[nH]1 (stereo unspecified) = Condition not met
c1ccc2c(c1)nc(CCN1CCCCC1)n1c3ccccc3nc21 = Condition met
c1ccc2c(c1)nc(CCN1CCOCC1)n1c3ccccc3nc21 = Condition met

Consider the record given below.
Task: Item CC1CCCCN1CC(=O)Nc1ccccc1-c1nc2ccccc2[nH]1 (stereo unspecified) with logKA of 5 or above?
Result: Condition not met
